- experimental-target: T. gondii ME49Luc in IFN-y HeLa, luciferase, 72 h
- method-description: T. gondii growth inhibition with IFN-gamma, dose response, cell-based, ME49Luc, HeLa, luciferase, 72 h (AID 1259418)
Results filed as inconclusive are left out.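 How the source made its calls: active means fitted half-maximal concentration of signal decrease at or below twice the sample's top tested concentration; inconclusive means flat curve between -70 and -30 percent, or poor fit; inactive means flat within 30 percent, signal rise, or potency above limit.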
Select the matching outcome among 1 (yes) = active, 0 (no) = inactive

O=C(NCCCN1CCCC1=O)C1CCN(Cc2cc3ccccc3n2Cc2cccc(F)c2)CC1; 1 (yes)
Cc1ccc(CNC2=NCCNC23CCN(S(=O)(=O)c2cc(C)c(C)cc2C)CC3)cc1; 1 (yes)
Fc1ccccc1CSc1nc(NCc2ccc(Cl)cc2)c2ccccc2n1; 1 (yes)

Q: What outcome does the record of this test show for Cc1ccc(-c2cc(O)c3c(c2)CN(C(=O)CCN2CCCO2)CCO3)s1 ?
A: 1 (yes)

Q: What outcome does the record of this test show for O=C1c2cccc(O)c2C(=O)c2c(O)cc(CO)cc21 ?
A: 1 (yes)

Q: What outcome does the record of this test show for O=S(=O)(c1ccc2c(c1)CCCC2)N1CCC2(CC1)NCCN=C2NCc1cc(F)cc(F)c1 ?
A: 1 (yes)

Q: What outcome does the record of this test show for CCCNC(=O)[C@H]1[C@H](CO)[C@H]2Cn3c(ccc(C4=CCCCC4)c3=O)[C@H]2N1Cc1ccccc1F ?
A: 1 (yes)

Q: What outcome does the record of this test show for Cc1ccc(-c2nc(Cn3c(=O)c4c(C)cc(C)nc4n(-c4ccccc4)c3=O)c(C)o2)cc1 ?
A: 1 (yes)

Q: What outcome does the record of this test show for CCOc1ccc(-c2nc(CN3CCN(C(=O)NC4CCCC4)CC3)c(C)o2)cc1 ?
A: 1 (yes)

Q: What outcome does the record of this test show for O=C(c1cccc(F)c1)N1CCCCN2[C@H](C1)[C@H](c1ccc(C#CC3(O)CCCC3)cc1)[C@@H]2CO ?
A: 1 (yes)

Q: What outcome does the record of this test show for O=C(Nc1ccccc1)N1CC2CN(Cc3ccc(C(F)(F)F)cc3)C2C1 (configuration not stated) ?
A: 1 (yes)
